Tested on: chloroquine-resistant P. falciparum strain W2
test_summary: microbe, parasite or virus in culture
condition_summary: Plasmodium falciparum, W2, read-out: IC50 (nM), P. falciparum growth
outcome_measure: IC50
Kindly report the value followed by its unit.

Enquiry: For the record CCN(CC)CCCC(C)Nc1ccnc2cc(Cl)ccc12 (stereo not shown) , what value of IC50 is listed for chloroquine-resistant P. falciparum strain W2?
Return: 66.9 nM

Where these numbers come from: paper PMC3321104
